Test system: NCI-H322M lung
Test: NCI-60 one-dose screen, 48 h (100 = growth as untreated, 0 = no growth, -100 = all killed)
Conditions: 10 µM unless noted
About 83,000 compounds went through this panel and 20% of them were active in at least one assay; those are over-represented in the sample as a whole.
A collection of compounds and their measured growth
The figure you give is taken to be in %; do not add the unit.

[[record]]
compound = "COC(CC(F)F)c1cn(S(=O)(=O)c2ccc(C)cc2)c2ccccc12 (stereo not given)"
measured_value = 27.8

[[record]]
compound = "COc1ccc(C(=O)N2c3ccccc3Sc3ccccc32)c(OC)c1"
measured_value = 62.2

[[record]]
compound = "C=CCN=c1sc2c(n1NC(=O)c1cc3ccc1CCc1ccc(cc1)CC3)C(=O)c1ccccc1C2=O"
measured_value = 67.8

[[record]]
compound = "O=C(O)CCN1C(=O)/C(=C/C(Cl)=C/c2ccccc2)SC1=S"
measured_value = 61


## Input Recorded growth for Cc1c(O)cc(-c2cnc(Nc3ccccc3)s2)c(O)c1C , please?
## Output 96.6

## Input Note, next up: CCN(CC)S(=O)(=O)c1ccc(S(=O)(=O)N2CCC[C@@H](C(=O)N3CCN(c4nc(C(C)C)no4)CC3)C2)cc1
## Output 88.7

## Input Note, next up: C#Cc1c2c(c(OC)c3c1OCO3)[C@H]([C@H]1OC(=O)c3c1ccc(OC)c3OC)N(C)CC2
## Output 94

## Input Note, next up: Cc1cc(C(=O)O)c(C)n1-c1cccc(C(=O)O)c1
## Output 94

## Input Note, next up: COc1ccc2[nH]c(C(=O)N3CCN(C(=O)OCc4ccc5c(Cl)cc(Cl)c(O)c5n4)CC3)cc2c1
## Output 29.1

## Input Note, next up: COc1ccc(/C=N/NC(=O)c2ccc(-n3cc(-c4ccccc4)nn3)cc2)cc1OC
## Output 105

* * *

Tested on: SF-539 CNS
Test: NCI-60 one-dose screen, 48 h (100 = growth as untreated, 0 = no growth, -100 = all killed)
Conditions: 10 µM unless noted
Method: Cells are grown in 96 well plates and exposed to the test compound for 48 hours. Compounds are tested at a single concentration, which is 10^-5 M for most compounds. The reported endpoint is percent growth (GI% or GIPRCNT), where numbers from 0 - 100% represent growth inhibition, and numbers from -100% - 0 represent cell death. For example, a value of 40 represents 60% growth inhibition. A value of 0 means no net growth occurred over the course of the experiment. […]
About 83,000 compounds went through this panel and 20% of them were active in at least one assay; those are over-represented in the sample as a whole.
Hi, to clarify the labels: TRUE covers growth from 90% upward, FALSE covers anything below 90%.

[[record]]
molecule = "Nc1nc2ccc(-c3nc4ccc5[nH]ncc5c4c4c3CCCC4)cc2s1"
qualitative_label = "TRUE"

[[record]]
molecule = "COc1ccc(Nc2ncc(Br)c(NCCCNC(=O)c3cccs3)n2)cc1"
qualitative_label = "FALSE"

[[record]]
molecule = "Ic1ccc(OCCCCn2ccnc2)cc1"
qualitative_label = "FALSE"

[[record]]
molecule = "CC1=NC2=Nn3c(c4cnn(-c5ccccc5)c4n/c3=N\\N)NN2C(c2ccccc2)=C1"
qualitative_label = "TRUE"

[[record]]
molecule = "O=C(Nc1cccc(-c2ccc(Cl)c(C(F)(F)F)c2)c1)C1CCN(Cc2cccc3cccnc23)CC1"
qualitative_label = "FALSE"


## Input Test whether the molecule Cc1[nH]c(C(=O)Nc2ccc(C(=O)N3CCN(c4cc5c(cc4F)c(=O)c(C(=O)O)cn5C4CC4)CC3)cc2OC(C)C)c(Cl)c1Cl records growth of 90% or higher.
## Output FALSE

## Input Note, next up: COCCn1cc(-c2nc(-c3cc4cccnc4[nH]3)cs2)c2cc(OC)ccc21
## Output FALSE

## Input Note, next up: NC(=O)c1cc(I)ccc1NC(=O)/C=C/c1ccccc1
## Output FALSE

## Input Note, next up: CN1C(=O)/C(=C\c2c(Cl)cccc2Cl)c2ccccc21
## Output FALSE

## Input Note, next up: Cn1ccc(=O)c(C(=O)Nc2nsc3ccc([N+](=O)[O-])cc23)c1
## Output FALSE

## Input Note, next up: Oc1c(Br)cc(Br)c2ccc(Cn3cc(-c4ccccc4C(F)(F)F)nn3)nc12
## Output TRUE

## Input Note, next up: Cc1ccc(C[P+](c2ccccc2)(c2ccccc2)c2ccccc2)cc1
## Output FALSE

## Input Note, next up: N#CSc1c[nH]c2cccc(/C=C/C(=O)/C=C(/C=C/c3cccc4[nH]cc(SC#N)c34)OB(F)F)c12
## Output FALSE

## Input Note, next up: Cc1ccc(-c2nc([P+](c3ccccc3)(c3ccccc3)c3ccccc3)c(S(=O)(=O)c3ccc(C)cc3)o2)cc1
## Output FALSE

## Input Note, next up: COc1cc(-c2nccc3[nH]c(-c4ccc5cc[nH]c5c4)nc23)cc(OC)c1OC
## Output FALSE

## Input Note, next up: O=C(/C=C/c1cccc(Cl)c1)c1ccc(Nc2nc(Nc3ccc(F)cc3)nc(Nc3ccc(Cl)cc3)n2)cc1
## Output TRUE

* * *

Test system: HCT-15 colon
Experiment: NCI-60 one-dose screen, 48 h (100 = growth as untreated, 0 = no growth, -100 = all killed)
Conditions: 10 µM unless noted
Experimental: Growth inhibition of the HCT-15 human tumor cell line is measured as a screen for anti-cancer activity. Cells are grown in 96 well plates and exposed to the test compound for 48 hours. Compounds are tested at a single concentration, which is 10^-5 M for most compounds. The reported endpoint is percent growth (GI% or GIPRCNT), where numbers from 0 - 100% represent growth inhibition, and numbers from -100% - 0 represent cell death. For example, a value of 40 represents 60% growth inhibition. […]
The panel holds about 83,000 compounds, 20% with a hit somewhere; the sample as a whole holds those more often. Active and inactive are the calls of the source. Rule for the calls: active = growth percent below 10; inactive = the rest.
A collection of compounds and their measured growth

[[record]]
compound = "c1cc2c(ccc3[nH]c(-c4ccc5[nH]ncc5c4)c4c(c32)CCCC4)n1"
measured_value = "61.6% (inactive)"

[[record]]
compound = "Nc1ncnc2c1C(c1ccc(Br)cc1)c1sc3c(F)cccc3c1O2 (centres undefined)"
measured_value = "97.1% (inactive)"

[[record]]
compound = "CCN(CC)S(=O)(=O)c1ccc(S(=O)(=O)N2CCC[C@@H](C(=O)N3CCN(c4nc(C(C)C)no4)CC3)C2)cc1"
measured_value = "92.2% (inactive)"


Attention now turns to another entry.
## Input Short answer please: growth, HCT-15 colon, entry COc1cc2c(cc1OCCCN1CCN(CCCOc3cc4c(cc3OC)C(=O)N3CC(F)(F)C[C@H]3C=N4)CC1)N=C[C@@H]1CC(F)(F)CN1C2=O
## Output 101% (inactive)

* * *

System: RXF 393 renal
Experiment: NCI-60 one-dose screen, 48 h (100 = growth as untreated, 0 = no growth, -100 = all killed)
Conditions: 10 µM unless noted
The panel holds about 83,000 compounds, 20% with a hit somewhere; the sample as a whole holds those more often.
Hi, to clarify the labels: y covers growth from 80% upward, n covers anything below 80%.

## Input Test whether the compound N#C/C(=C\c1c(-c2ccccc2)[nH]c2ccccc12)C(N)=O records growth of 80% or higher.
## Output y

## Input Note, next up: CC(C)=CC(=O)OCC(=O)O[C@@H]1C[C@]2(C(C)C)O[C@@]1(C)[C@@H]1CC[C@@H](C)[C@H]1[C@@H]2OC(=O)/C=C/c1ccccc1
## Output n

## Input Note, next up: Cc1ccc2c(n1)C(=O)C(Br)=C(CC(C)C)C2=O
## Output y

## Input Note, next up: CCO/C=N/C1=C(C#N)C(c2ccc(Cl)cc2)c2sc3c(F)cccc3c2O1 (stereo not given)
## Output n

## Input Note, next up: O=C(/C=C/c1ccccc1)Nc1ncc(Cc2ccccc2Cl)s1
## Output n

* * *

Tested on: UACC-257 melanoma
Assay: NCI-60 one-dose screen, 48 h (100 = growth as untreated, 0 = no growth, -100 = all killed)
Settings: 10 µM unless noted
The panel holds about 83,000 compounds, 20% with a hit somewhere; the sample as a whole holds those more often.
Experimental readout: growth (%)
The figure you give is taken to be in %; do not add the unit.

## Input Short answer please: growth, UACC-257 melanoma, entry CC(C)C1=NOC(=O)C1=Cc1cn(-c2ccccc2)nc1-c1ccc(F)cc1
## Output 91

## Input Note, next up: CS(=O)(=O)Nc1cc(-c2ccc3ncnc(Nc4ccc5c(cnn5Cc5ccc(F)cc5)c4)c3c2)cnc1Cl
## Output 50

## Input Note, next up: COc1ccc(-c2cc(-c3cccnc3)nc3sc4c(=O)[nH]c(-c5ccc(Cl)cc5)nc4c23)cc1OC
## Output 97.5

## Input Note, next up: C[C@@H](CO)[C@@H]1CCC=C2CC[C@]3(C)[C@H](CC[C@@H]4[C@@]5(C)CCCNC(C)(C)[C@@H]5CC[C@]43C)[C@H]21
## Output 30.4

Data provenance: PubChem BioAssay (NCI)
